assay: Terminal half life in ICR mouse 50 mg/kg, po measured for 24 hrs by HPLC-MS analysis; assay type: ADME, organism-based; settings: in vivo, read-out: beta t1/2 (converted)
QUANTITY MEASURED: half-life (h)
# value in h; strip the unit string

Reported half-life, compound "COc1c(CO)c(OC)c(C(=O)c2ccccc2)c2c1C[C@H]1CC/C(C)=C/CC(C)(C)/C=C/C[C@]1(C)O2" : ____
2.5

* * *

Target: UniProt:P18031
Sequence (P18031 whole entry): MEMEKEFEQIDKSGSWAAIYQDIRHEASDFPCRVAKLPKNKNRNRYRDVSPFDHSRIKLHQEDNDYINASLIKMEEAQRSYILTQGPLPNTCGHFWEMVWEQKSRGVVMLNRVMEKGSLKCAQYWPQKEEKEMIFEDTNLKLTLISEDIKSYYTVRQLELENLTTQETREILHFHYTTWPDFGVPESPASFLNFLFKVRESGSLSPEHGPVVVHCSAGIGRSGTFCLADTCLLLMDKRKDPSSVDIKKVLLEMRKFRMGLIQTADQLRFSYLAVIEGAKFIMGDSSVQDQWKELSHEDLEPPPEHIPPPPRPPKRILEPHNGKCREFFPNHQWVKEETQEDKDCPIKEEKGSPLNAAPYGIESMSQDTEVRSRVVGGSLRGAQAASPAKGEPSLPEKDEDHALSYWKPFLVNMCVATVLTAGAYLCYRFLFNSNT
QUANTITY MEASURED: IC50 (µM)
# value in µM; strip the unit string

Reported IC50, molecule "C=C1CC[C@@H]2[C@H](c3ccccc3)c3c(O)c(C=O)c(O)c(C=O)c3O[C@@]2(C)CC[C@H]2[C@H]1CC2(C)C" : ____
5

* * *

assay: MRT (0 to t) in ICR mouse 1 mg/kg, iv measured for 24 hrs by HPLC-MS analysis; format: ADME, organism-based; conditions: in vivo
QUANTITY MEASURED: MRT last at 24 h (h)
# value in h; strip the unit string

Reported MRT last at 24 h, compound "COc1c(CO)c(OC)c(C(=O)c2ccccc2)c2c1C[C@H]1CC/C(C)=C/CC(C)(C)/C=C/C[C@]1(C)O2" : ____
1.59

* * *

assay: MRT (0 to infinity) in ICR mouse 50 mg/kg, po measured for 24 hrs by HPLC-MS analysis; format: ADME, organism-based; conditions: in vivo
QUANTITY MEASURED: MRT inf
Please don't drop the unit; write it after the number.

Reported MRT inf, compound "COc1c(CO)c(OC)c(C(=O)c2ccccc2)c2c1C[C@H]1CC/C(C)=C/CC(C)(C)/C=C/C[C@]1(C)O2" : ____
3.21 h

* * *

assay: Cytotoxicity against human HK-2 cells incubated for 72 hrs by MTT assay; format: toxicity, cell-based
Overview of reported IC50 at 72 h across a group of compounds:

- COMPOUND: "C/C1=C\\CC(C)(C)/C=C/CC2(C)Oc3c(c(O)c(C=O)c(O)c3C(=O)c3ccccc3)CC2CC1 (stereo not given)"
  QUANTITY MEASURED: "IC50 at 72 h"
  RECORDED RESULT: "> 10 µM"
- COMPOUND: "CC12C[C@H]3[C@@H](CC1Cc1c(O)c(C(=O)c4ccccc4)c(O)c(C=O)c1O2)C3(C)C (stereo not given in full)"
  QUANTITY MEASURED: "IC50 at 72 h"
  RECORDED RESULT: "9.31 µM"
- COMPOUND: "COc1c2c(c(CN3CCN(C)CC3)c(OC)c1C(=O)c1ccccc1)OC(C)(C)C(C)C2 (stereo not given)"
  QUANTITY MEASURED: "IC50 at 72 h"
  RECORDED RESULT: "> 10 µM"
- COMPOUND: "COc1c(CN2CCN(C)CC2)c(OC)c(C(=O)c2ccccc2)c2c1CC1CCCC1(C)O2 (stereo not given)"
  QUANTITY MEASURED: "IC50 at 72 h"
  RECORDED RESULT: "> 10 µM"

Shifting focus to the compound that follows.
Reported IC50 at 72 h, compound CC12CCCC1Cc1c(O)c(C(=O)c3ccccc3)c(O)c(C=O)c1O2 (stereo not given) : ____
> 10 µM

* * *

test system: HK-2; test: Protection against cisplatin-induced nephrotoxicity in human HK-2 cells assessed as cell viability at 5 uM preincubated with compound for 2 hrs followed by cisplatin induction and measured after 72 hrs by MTT assay (reference value: 45.1 +/- 3.2%); type: functional; details: time 74 hrs, read-out: Activity
QUANTITY MEASURED: viability at 5 µM (%)
# value in %; strip the unit string

Worked set:
- MOLECULE: "COc1c(CO)c2c(c(OC)c1C(=O)c1ccccc1)CC1CC/C(C)=C/CC(C)(C)/C=C/CC1(C)O2 (stereo not given)"
  viability at 5 µM (%): 73.6
- MOLECULE: "C/C1=C\\CC(C)(C)/C=C/CC2(C)Oc3c(C=O)c(O)c(C(=O)c4ccccc4)c(O)c3CC2CC1 (stereo not given)"
  viability at 5 µM (%): 66.8
- MOLECULE: "COc1c(C=O)c(OC)c(C(=O)c2ccccc2)c2c1CC1CC/C(C)=C/CC(C)(C)/C=C/CC1(C)O2 (stereo not given)"
  viability at 5 µM (%): 82.8

Please tell me: viability at 5 µM of C/C1=C\CC(C)(C)/C=C/CC2(C)Oc3c(c(O)c(C=O)c(O)c3C(=O)c3ccccc3)CC2CC1 (stereo not given) , system HK-2?
70.2

Please tell me: viability at 5 µM of COc1c2c(c(C(=O)c3ccccc3)c(OC)c1C(=O)O)OC1(C)C/C=C/C(C)(C)C/C=C(\C)CCC1C2 (stereo not given) , system HK-2?
60.4

Please tell me: viability at 5 µM of COc1c(CN2CCN(C)CC2)c(OC)c(C(=O)c2ccccc2)c2c1CC1CC/C(C)=C/CC(C)(C)/C=C/CC1(C)O2 (stereo not given) , system HK-2?
57.9

Please tell me: viability at 5 µM of COc1c(CO)c(OC)c(C(=O)c2ccccc2)c2c1CC1CC/C(C)=C/CC(C)(C)/C=C/CC1(C)O2 (stereo not given) , system HK-2?
80.8

Please tell me: viability at 5 µM of COc1c2c(c(C(=O)O)c(OC)c1C(=O)c1ccccc1)OC1(C)C/C=C/C(C)(C)C/C=C(\C)CCC1C2 (stereo not given) , system HK-2?
64.4

Please tell me: viability at 5 µM of COc1c2c(c(CN3CCN(C)CC3)c(OC)c1C(=O)c1ccccc1)OC1(C)C/C=C/C(C)(C)C/C=C(\C)CCC1C2 (stereo not given) , system HK-2?
59.6

Please tell me: viability at 5 µM of COc1c(C=O)c2c(c(OC)c1C(=O)c1ccccc1)CC1CC/C(C)=C/CC(C)(C)/C=C/CC1(C)O2 (stereo not given) , system HK-2?
79.2

* * *

test: Cmax in ICR mouse 1 mg/kg, iv measured for 24 hrs by HPLC-MS analysis; type: ADME, organism-based; conditions: in vivo
QUANTITY MEASURED: Cmax (µg/mL)
# value in µg/mL; strip the unit string

Reported Cmax, compound "COc1c(CO)c(OC)c(C(=O)c2ccccc2)c2c1C[C@H]1CC/C(C)=C/CC(C)(C)/C=C/C[C@]1(C)O2" : ____
0.485

* * *

experiment: Volume of distribution in ICR mouse 1 mg/kg, iv measured for 24 hrs by HPLC-MS analysis; type: ADME, organism-based; conditions: in vivo
QUANTITY MEASURED: Vd (L/kg)
# value in L/kg; strip the unit string

Reported Vd, molecule "COc1c(CO)c(OC)c(C(=O)c2ccccc2)c2c1C[C@H]1CC/C(C)=C/CC(C)(C)/C=C/C[C@]1(C)O2" : ____
24.4

* * *

assay: Oral bioavailability in ICR mouse 50 mg/kg measured for 24 hrs by HPLC-MS analysis; assay type: ADME, organism-based; conditions: in vivo
QUANTITY MEASURED: bioavailability
Please don't drop the unit; write it after the number.

Reported bioavailability, compound "COc1c(CO)c(OC)c(C(=O)c2ccccc2)c2c1C[C@H]1CC/C(C)=C/CC(C)(C)/C=C/C[C@]1(C)O2" : ____
11.9%

* * *

experiment: AUC (0 to t) in ICR mouse 1 mg/kg, iv measured for 24 hrs by HPLC-MS analysis; format: ADME, organism-based; conditions: in vivo
QUANTITY MEASURED: AUC(0-t) at 24 h (ng·h/mL)
# value in ng·h/mL; strip the unit string

Reported AUC(0-t) at 24 h, molecule "COc1c(CO)c(OC)c(C(=O)c2ccccc2)c2c1C[C@H]1CC/C(C)=C/CC(C)(C)/C=C/C[C@]1(C)O2" : ____
137

* * *

assay: Terminal half life in ICR mouse 1 mg/kg, iv measured for 24 hrs by HPLC-MS analysis; type: ADME, organism-based; conditions: in vivo, read-out: beta t1/2 (converted)
QUANTITY MEASURED: half-life (h)
# value in h; strip the unit string

Reported half-life, compound "COc1c(CO)c(OC)c(C(=O)c2ccccc2)c2c1C[C@H]1CC/C(C)=C/CC(C)(C)/C=C/C[C@]1(C)O2" : ____
2.47
